System: E3 ubiquitin-protein ligase RNF149/Epidermal growth factor receptor (Homo sapiens), P00533+Q8NC42 [UNDEFINED MUTATION]
Sequence (P00533 whole entry, looked up, change not shown): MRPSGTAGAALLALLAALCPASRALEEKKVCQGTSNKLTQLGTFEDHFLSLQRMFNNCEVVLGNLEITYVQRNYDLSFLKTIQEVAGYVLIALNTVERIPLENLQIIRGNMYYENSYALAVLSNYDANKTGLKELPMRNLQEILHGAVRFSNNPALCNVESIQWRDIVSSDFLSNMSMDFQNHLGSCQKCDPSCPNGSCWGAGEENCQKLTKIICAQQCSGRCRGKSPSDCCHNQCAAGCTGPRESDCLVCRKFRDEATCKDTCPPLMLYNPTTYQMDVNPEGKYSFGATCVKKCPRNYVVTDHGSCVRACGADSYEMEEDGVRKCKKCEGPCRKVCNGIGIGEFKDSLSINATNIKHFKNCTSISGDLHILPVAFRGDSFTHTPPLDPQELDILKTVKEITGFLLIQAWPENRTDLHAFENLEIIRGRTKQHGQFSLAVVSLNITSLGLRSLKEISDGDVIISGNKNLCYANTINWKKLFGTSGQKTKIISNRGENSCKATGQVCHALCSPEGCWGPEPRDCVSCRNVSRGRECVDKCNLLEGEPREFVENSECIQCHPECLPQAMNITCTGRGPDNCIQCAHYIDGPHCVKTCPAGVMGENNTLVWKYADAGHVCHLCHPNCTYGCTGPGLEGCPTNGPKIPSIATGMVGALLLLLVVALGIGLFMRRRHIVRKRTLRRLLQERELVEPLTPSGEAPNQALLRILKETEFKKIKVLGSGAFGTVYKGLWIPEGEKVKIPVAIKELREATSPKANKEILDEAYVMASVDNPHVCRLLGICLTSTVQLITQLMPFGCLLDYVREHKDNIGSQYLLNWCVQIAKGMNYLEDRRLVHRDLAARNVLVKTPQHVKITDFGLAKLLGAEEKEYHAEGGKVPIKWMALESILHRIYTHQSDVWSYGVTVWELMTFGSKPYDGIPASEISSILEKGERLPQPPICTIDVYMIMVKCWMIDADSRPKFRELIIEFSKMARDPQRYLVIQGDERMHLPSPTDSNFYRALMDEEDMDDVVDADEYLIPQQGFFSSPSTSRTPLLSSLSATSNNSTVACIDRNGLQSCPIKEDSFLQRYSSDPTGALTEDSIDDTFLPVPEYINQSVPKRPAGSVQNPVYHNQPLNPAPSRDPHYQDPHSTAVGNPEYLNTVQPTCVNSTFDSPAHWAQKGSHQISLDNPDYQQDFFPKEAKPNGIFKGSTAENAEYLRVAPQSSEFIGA
Sequence (Q8NC42 whole entry, looked up, change not shown): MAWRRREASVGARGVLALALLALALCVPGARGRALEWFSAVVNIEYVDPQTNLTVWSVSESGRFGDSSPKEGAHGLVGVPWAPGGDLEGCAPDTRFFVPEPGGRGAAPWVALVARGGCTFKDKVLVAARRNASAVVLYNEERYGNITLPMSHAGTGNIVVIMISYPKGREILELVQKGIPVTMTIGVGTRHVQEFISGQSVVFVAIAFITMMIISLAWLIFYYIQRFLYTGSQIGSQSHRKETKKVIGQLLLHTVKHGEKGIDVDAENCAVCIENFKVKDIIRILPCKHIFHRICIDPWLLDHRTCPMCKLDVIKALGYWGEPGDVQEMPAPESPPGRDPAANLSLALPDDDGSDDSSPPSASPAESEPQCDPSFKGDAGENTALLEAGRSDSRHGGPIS
EXPERIMENTAL PROTOCOL: SiHyT-mediated degrader activity at RNF149/EGFR mutant in human HCC827 cells assessed as induction of EGFR degradation at 1 uM cells incubated in serum-free media for 8 hrs followed by incubation with compound for 24 hrs by western blot analysis
Type: cell-based
ENDPOINT LABEL: Activity (%)
Numeric only. Scale: %

I have this molecule here, `COc1cc2ncnc(Nc3ccc(F)c(Cl)c3)c2cc1OCCCN1CCN(CCn2cc(CCCO[Si](C)(C)C3CCCCC3)nn2)CC1` , and I need its recorded Activity.
13.7

I have this molecule here, `COc1cc2ncnc(Nc3ccc(F)c(Cl)c3)c2cc1OCCn1cc(CCO[Si](c2ccccc2)(c2ccccc2)C(C)(C)C)nn1` , and I need its recorded Activity.
72.1

I have this molecule here, `COc1cc2ncnc(Nc3ccc(F)c(Cl)c3)c2cc1OCCOCCO[Si](c1ccccc1)(c1ccccc1)C(C)(C)C` , and I need its recorded Activity.
0

I have this molecule here, `COc1cc2ncnc(Nc3ccc(F)c(Cl)c3)c2cc1OCCCN1CCN(CCn2cc(CCCO[Si](c3ccccc3)(c3ccccc3)C(C)(C)C)nn2)CC1` , and I need its recorded Activity.
10.8

I have this molecule here, `COc1cc2ncnc(Nc3ccc(F)c(Cl)c3)c2cc1OCCCCCCCO[Si](c1ccccc1)(c1ccccc1)C(C)(C)C` , and I need its recorded Activity.
0

* * *

EXPERIMENTAL PROTOCOL: Half life of the compound in mouse liver microsomes at 1 uM in presence of NADPH by LC-MS/MS analysis
Format: ADME, Microsome
ENDPOINT LABEL: half-life at 1 µM (min)
Numeric only. Scale: min

- COMPOUND: "COc1cc2ncnc(Nc3ccc(F)c(Cl)c3)c2cc1OCCn1cc(CCCNC(=O)CO[C@@H]2C[C@H](C)CC[C@H]2C(C)C)nn1"
  UNIT OF MEASURE: "min"
  ASSAY VALUE: 7.4

I have this compound here, COc1cc2ncnc(Nc3ccc(F)c(Cl)c3)c2cc1OCCn1cc(CCCC(=O)NCC2CC3C=CC2C3)nn1 (stereo not given) , and I need its recorded half-life at 1 µM.
8.94

I have this compound here, O=C(O)Cc1ccccc1Nc1c(Cl)cccc1Cl [DICLOFENAC] , and I need its recorded half-life at 1 µM.
50.2

I have this compound here, `COc1cc2ncnc(Nc3ccc(F)c(Cl)c3)c2cc1OCCn1cc(CCCNC(=O)CC23CC4CC(CC(C4)C2)C3)nn1` , and I need its recorded half-life at 1 µM.
1.05

* * *

Form field: log10 of CLint scaled at 1 µM (one value per entry).
EXPERIMENTAL PROTOCOL: Intrinsic clearance of the compound in human liver microsomes at 1 uM in presence of NADPH by LC-MS/MS analysis
Format: ADME, Microsome
MEASUREMENT SETUP: read-out: CLH
Plainly stated, the numbers are log10 of CLint scaled at 1 µM given in L/h/kg.

- MOLECULE: "COc1cc2ncnc(Nc3ccc(F)c(Cl)c3)c2cc1OCCn1cc(CCCNC(=O)CC23CC4CC(CC(C4)C2)C3)nn1"
  ASSAY VALUE: 1.62

I have this molecule here, `O=C(O)Cc1ccccc1Nc1c(Cl)cccc1Cl` , and I need its recorded log10 of CLint scaled at 1 µM.
1.03

I have this molecule here, `COc1cc2ncnc(Nc3ccc(F)c(Cl)c3)c2cc1OCCn1cc(CCCNC(=O)CO[C@@H]2C[C@H](C)CC[C@H]2C(C)C)nn1` , and I need its recorded log10 of CLint scaled at 1 µM.
1.25

I have this molecule here, COc1cc2ncnc(Nc3ccc(F)c(Cl)c3)c2cc1OCCn1cc(CCCC(=O)NCC2CC3C=CC2C3)nn1 (stereo not given) , and I need its recorded log10 of CLint scaled at 1 µM.
0.90

I have this molecule here, `COc1cc2ncnc(Nc3ccc(F)c(Cl)c3)c2cc1OCCn1cc(CCCO[Si](c2ccccc2)(c2ccccc2)C(C)(C)C)nn1` , and I need its recorded log10 of CLint scaled at 1 µM.
-0.25

* * *

EXPERIMENTAL PROTOCOL: Cmax in ICR mouse at 1 mg/kg, iv by LC-MS/MS analysis
Type: ADME, organism-based
MEASUREMENT SETUP: in vivo
ENDPOINT LABEL: Cmax

I have this molecule here, `COc1cc2ncnc(Nc3ccc(F)c(Cl)c3)c2cc1OCCn1cc(CCCO[Si](c2ccccc2)(c2ccccc2)C(C)(C)C)nn1` , and I need its recorded Cmax.
2210 ng/mL

* * *

Form field: CLint scaled at 1 µM (one value per entry).
EXPERIMENTAL PROTOCOL: Intrinsic clearance of the compound in mouse liver microsomes at 1 uM in presence of NADPH by LC-MS/MS analysis
Assay type: ADME, Microsome
MEASUREMENT SETUP: read-out: CLH
Numeric only. Scale: L/h/kg

Worked cases, CLint scaled at 1 µM given:
- COMPOUND: "COc1cc2ncnc(Nc3ccc(F)c(Cl)c3)c2cc1OCCn1cc(CCCC(=O)NCC2CC3C=CC2C3)nn1 (stereo not given)"
  CLint scaled at 1 µM (L/h/kg): 36.8
- COMPOUND: "O=C(O)Cc1ccccc1Nc1c(Cl)cccc1Cl [DICLOFENAC]"
  CLint scaled at 1 µM (L/h/kg): 6.56
- COMPOUND: "COc1cc2ncnc(Nc3ccc(F)c(Cl)c3)c2cc1OCCn1cc(CCCNC(=O)CC23CC4CC(CC(C4)C2)C3)nn1"
  CLint scaled at 1 µM (L/h/kg): 314

I have this compound here, `COc1cc2ncnc(Nc3ccc(F)c(Cl)c3)c2cc1OCCn1cc(CCCO[Si](c2ccccc2)(c2ccccc2)C(C)(C)C)nn1` , and I need its recorded CLint scaled at 1 µM.
1.31

I have this compound here, `COc1cc2ncnc(Nc3ccc(F)c(Cl)c3)c2cc1OCCn1cc(CCCNC(=O)CO[C@@H]2C[C@H](C)CC[C@H]2C(C)C)nn1` , and I need its recorded CLint scaled at 1 µM.
44.5

* * *

EXPERIMENTAL PROTOCOL: Tmax in ICR mouse at 10 mg/kg, po by LC-MS/MS analysis
Format: ADME, organism-based
MEASUREMENT SETUP: in vivo
ENDPOINT LABEL: Tmax (h)
Numeric only. Scale: h

I have this molecule here, `COc1cc2ncnc(Nc3ccc(F)c(Cl)c3)c2cc1OCCn1cc(CCCO[Si](c2ccccc2)(c2ccccc2)C(C)(C)C)nn1` , and I need its recorded Tmax.
1

* * *

EXPERIMENTAL PROTOCOL: Half life of the compound in human liver microsomes at 1 uM in presence of NADPH by LC-MS/MS analysis
Format: ADME, Microsome
Form field: half-life at 1 µM (one value per entry).

- COMPOUND: "COc1cc2ncnc(Nc3ccc(F)c(Cl)c3)c2cc1OCCn1cc(CCCO[Si](c2ccccc2)(c2ccccc2)C(C)(C)C)nn1"
  ASSAY VALUE: "> 60 min"

I have this compound here, COc1cc2ncnc(Nc3ccc(F)c(Cl)c3)c2cc1OCCn1cc(CCCC(=O)NCC2CC3C=CC2C3)nn1 (stereo not given) , and I need its recorded half-life at 1 µM.
9.48 min

I have this compound here, `COc1cc2ncnc(Nc3ccc(F)c(Cl)c3)c2cc1OCCn1cc(CCCNC(=O)CO[C@@H]2C[C@H](C)CC[C@H]2C(C)C)nn1` , and I need its recorded half-life at 1 µM.
4.22 min

I have this compound here, `COc1cc2ncnc(Nc3ccc(F)c(Cl)c3)c2cc1OCCn1cc(CCCNC(=O)CC23CC4CC(CC(C4)C2)C3)nn1` , and I need its recorded half-life at 1 µM.
1.81 min

I have this compound here, `O=C(O)Cc1ccccc1Nc1c(Cl)cccc1Cl` , and I need its recorded half-life at 1 µM.
6.96 min

* * *

Form field: Activity (one value per entry).
System: E3 ubiquitin-protein ligase RNF149/Epidermal growth factor receptor (Homo sapiens), P00533+Q8NC42 [UNDEFINED MUTATION]
EXPERIMENTAL PROTOCOL: SiHyT-mediated degrader activity at RNF149/EGFR mutant in human HCC827 cels assessed as induction of EGFR degradation at 0.1 uM cells incubated in serum-free media for 8 hrs followed by incubation with compound for 24 hrs by western blot analysis
Type: cell-based
Numeric only. Scale: %

Worked cases, Activity given:
- SMILES REPR: "COc1cc2ncnc(Nc3ccc(F)c(Cl)c3)c2cc1OCCCCCCCO[Si](c1ccccc1)(c1ccccc1)C(C)(C)C"
  Activity (%): 0
- SMILES REPR: "COc1cc2ncnc(Nc3ccc(F)c(Cl)c3)c2cc1OCCn1cc(CCCO[Si](c2ccccc2)(c2ccccc2)C(C)(C)C)nn1"
  Activity (%): 54.6
- SMILES REPR: "COc1cc2ncnc(Nc3ccc(F)c(Cl)c3)c2cc1OCCCN1CCN(CCn2cc(CCCCO[Si](c3ccccc3)(c3ccccc3)C(C)(C)C)nn2)CC1"
  Activity (%): 0
- SMILES REPR: "COc1cc2ncnc(Nc3ccc(F)c(Cl)c3)c2cc1OCCCCCCCCO[Si](c1ccccc1)(c1ccccc1)C(C)(C)C"
  Activity (%): 0
- SMILES REPR: "COc1cc2ncnc(Nc3ccc(F)c(Cl)c3)c2cc1OCCn1cc(CCCCO[Si](c2ccccc2)(c2ccccc2)C(C)(C)C)nn1"
  Activity (%): 28

I have this compound here, `COc1cc2ncnc(Nc3ccc(F)c(Cl)c3)c2cc1OCCCN1CCN(CCn2cc(CCCO[Si](c3ccccc3)(c3ccccc3)C(C)(C)C)nn2)CC1` , and I need its recorded Activity.
0

I have this compound here, `CC[Si](CC)(CC)OCCCc1cn(CCOc2cc3c(Nc4ccc(F)c(Cl)c4)ncnc3cc2OC)nn1` , and I need its recorded Activity.
38.2
